- System: KYSE-270 (Esophageal Squamous Cell Carcinoma)
- Measurement Description: combination Emax (second highest fraction inhibited in the dose matrix, 72 h); higher = more inhibition; extreme values may be limits of the assay

Compound | Assay Target | combination Emax
CC1(C)CCC(CN2CCN(c3ccc(C(=O)NS(=O)(=O)c4ccc(NCC5CCOCC5)c([N+](=O)[O-])c4)c(Oc4cnc5[nH]ccc5c4)c3)CC2)=C(c2ccc(Cl)cc2)C1 [Venetoclax] + Cn1cnc2c(F)c(Nc3ccc(Br)cc3Cl)c(C(=O)NOCCO)cc21 [Selumetinib] (first compound max 1 µM, 7x7, partner max 3 µM) | KYSE-270 (Esophageal Squamous Cell Carcinoma) | 0.554
Cn1cnc2c(F)c(Nc3ccc(Br)cc3Cl)c(C(=O)NOCCO)cc21 [Selumetinib] + CCN(CCO)CCCOc1ccc2c(Nc3cc(CC(=O)Nc4cccc(F)c4)[nH]n3)ncnc2c1 [AZD2811] (first compound max 10 µM, 7x7, partner max 1 µM) | KYSE-270 (Esophageal Squamous Cell Carcinoma) | 0.295
CC1(C)CCC(CN2CCN(c3ccc(C(=O)NS(=O)(=O)c4ccc(NCC5CCOCC5)c([N+](=O)[O-])c4)c(Oc4cnc5[nH]ccc5c4)c3)CC2)=C(c2ccc(Cl)cc2)C1 [Venetoclax] + C1CN(CCC1(C(=O)N[C@@H](CCO)C2=CC=C(C=C2)Cl)N)C3=NC=NC4=C3C=CN4 [Capivasertib] (first compound max 1 µM, 7x7, partner max 3 µM) | KYSE-270 (Esophageal Squamous Cell Carcinoma) | 0.711
COc1cccc(OCCCN)c1-c1cc(Nc2cnc(C#N)cn2)n[nH]1 [Prexasertib] + C=CCn1c(=O)c2cnc(Nc3ccc(N4CCN(C)CC4)cc3)nc2n1-c1cccc(C(C)(C)O)n1 [AZD1775] (first compound max 1 µM, partner max 1 µM) | KYSE-270 (Esophageal Squamous Cell Carcinoma) | 1

---

- Tested on: NCI-H929 (Plasma Cell Myeloma);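 further: after 72 h of two-drug dosing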
- Measurement Description: Bliss excess, mean over the matrix (fraction); higher = more synergy
Examples of compounds with documented Bliss excess follow.
Reported Property: Bliss excess

Compound | Reading
Cn1cnc2c(F)c(Nc3ccc(Br)cc3Cl)c(C(=O)NOCCO)cc21 [Selumetinib] + C[C@@H]1COCCN1C2=NC(=NC(=C2)C3(CC3)[S@](=N)(=O)C)C4=C5C=CNC5=NC=C4 [AZD6738] (first compound max 10 µM, 7x7, partner max 10 µM) | -0.121
COc1cccc(OCCCN)c1-c1cc(Nc2cnc(C#N)cn2)n[nH]1 [Prexasertib] + C[C@@H]1COCCN1C2=NC(=NC(=C2)C3(CC3)[S@](=N)(=O)C)C4=C5C=CNC5=NC=C4 [AZD6738] (first compound max 1 µM, 7x7, partner max 10 µM) | -0.0081
COc1nnc2ccc(N3CCC(c4ccc(OCCN5CCN(C)C(=O)[C@H]5C)cc4)CC3)nn12 [AZD5153] + Cc1c2c(nn1C)CSCc1cc(n(C)n1)CSc1cc(c3ccccc3c1)OCCCc1c(C(=O)O)n(C)c3c-2c(Cl)ccc13 [AZD5991] (first compound max 1 µM, 7x7, partner max 1 µM) | -0.0142
C=CCn1c(=O)c2cnc(Nc3ccc(N4CCN(C)CC4)cc3)nc2n1-c1cccc(C(C)(C)O)n1 [AZD1775] + CCc1c2c(nc3ccc(O)cc13)-c1cc3c(c(=O)n1C2)COC(=O)[C@]3(O)CC [SN-38] (first compound max 1 µM, partner max 0.3 µM) | -0.0303
